This collection of values is drawn from patent US20220137027A1.

test: Epacadostat quantification in plasma and blood; format: in vivo, BALB/c mice; conditions: BALB/c, mouse, plasma, 100 mg/kg oral
measured-attribute: concentration at 2 h (ng/g)
// note: answer is a bare numeric in ng/g

// query Suppose we examine the molecule NS(=O)(=O)NCCNc1nonc1C(=NO)Nc1ccc(F)c(Br)c1 [EPA, Epacadostat] ; what concentration at 2 h value has been reported?
// result 6600

====

test: Epacadostat absolute quantification in CT26 tumor sections by QMSI (MALDI MSI); type: in vivo, BALB/c mice; conditions: BALB/c, mouse, CT26 tumor section, ROI 1 (high EPA region), oral, 100 mg/kg, EPA quantity in ROI 1 (high EPA), QMSI; ROI 1 = 38% of tumor surface
measured-attribute: concentration at 2 h (ng/g)
Give your result in ng/g as a bare value.

// query Which measured concentration at 2 h value corresponds to NS(=O)(=O)NCCNc1nonc1C(=NO)Nc1ccc(F)c(Br)c1 [EPA, Epacadostat] ?
// result 68000

====

assay: Epacadostat quantification in CT26 tumor sections by LC-MS/MS; format: in vivo, BALB/c mice; conditions: BALB/c, mouse, CT26 tumor tissue sections, 100 mg/kg oral gavage
measured-attribute: concentration at 2 h (ng/g)
Give just the number in ng/g; leave the unit off.

// query Reported concentration at 2 h for NS(=O)(=O)NCCNc1nonc1C(=NO)Nc1ccc(F)c(Br)c1 [EPA, Epacadostat] : what is it?
// result 38500

====

test: Epacadostat absolute quantification in CT26 tumor sections by QMSI (MALDI MSI); format: in vivo, BALB/c mice; details: BALB/c, mouse, CT26 tumor section, ROI 3 (entire section), oral, 100 mg/kg, EPA quantity in ROI 3 (entire treated tumor section), QMSI
measured-attribute: concentration at 2 h
Write the quantity with the unit trailing the number.

// query Which concentration at 2 h value is on record for NS(=O)(=O)NCCNc1nonc1C(=NO)Nc1ccc(F)c(Br)c1 ?
// result 42000 ng/g

====

experiment: Epacadostat absolute quantification in CT26 tumor sections by QMSI (MALDI MSI); assay type: in vivo, BALB/c mice; conditions: BALB/c, mouse, CT26 tumor relative to plasma, oral, 100 mg/kg; treated CT26 tumors, LC-MS/MS and QMSI
measured-attribute: Kp at 2 h

// query // lookup Kp at 2 h for NS(=O)(=O)NCCNc1nonc1C(=NO)Nc1ccc(F)c(Br)c1
// result 3 to 4

====

assay: Epacadostat absolute quantification in CT26 tumor sections by QMSI (MALDI MSI); assay type: in vivo, BALB/c mice; details: BALB/c, mouse, CT26 tumor section, ROI 2, oral, 100 mg/kg, EPA quantity corresponding to the share in ROI 2, 39% of EPA signal
measured-attribute: concentration at 2 h (ng/g)
A number alone suffices; assume ng/g.

// query State the recorded concentration at 2 h for this entry: NS(=O)(=O)NCCNc1nonc1C(=NO)Nc1ccc(F)c(Br)c1
// result 15000

====

test: Epacadostat absolute quantification in CT26 tumor sections by QMSI (MALDI MSI); format: in vivo, BALB/c mice; details: BALB/c, mouse, CT26 tumor tissue sections, po, 100 mg/kg, average EPA quantity in CT26 tumor, QMSI; 100 mg/kg oral gavage, 2 hours
measured-attribute: concentration at 2 h (ng/g)
Please respond with the number in ng/g and leave the unit unwritten.

// query Which value of concentration at 2 h has been reported for NS(=O)(=O)NCCNc1nonc1C(=NO)Nc1ccc(F)c(Br)c1 in the records?
// result 46000
